Data provenance: paper PMC9213791

experimental target: T1, recombinant human aCys-cNTnC (C35S, C84S double mutant), N-terminal regulatory domain of cardiac troponin C (human)
T1 construct: human cardiac/slow skeletal troponin C, N-terminal regulatory domain (cNTnC); Uniformly 15N-labeled for NMR; also called cNTnC domain; isolated cNTnC domain; source: E. coli, expressed and purified as previously described (Cai et al., 2016), lyophilized; 15N-labeled
test name: NMR titration; ssTnI peptide titrated to 0.1-3 equivalents into 15N-labeled cNTnC·RPI-194 complex (115 µM, 1:1 protein and drug); 100 mM KCl, 10 mM imidazole, pH ~6.7, 30°C; 2D 1H,15N HSQC; KD from TITAN, two-state model
experimental setup: both partners purified
outcome measure: Kd (µM)
Answers are plain numbers, in µM.

[Q] Which Kd value belongs to RVSADAMLRALLGSKHK (synthetic peptide; termini not stated. Limits not printed: taken as the ssTnI equivalent (offset -30) of the conventional cTnI switch peptide 147-163, because the paper compares it with the …) [slow skeletal troponin I switch peptide (ssTnI)] ?
[A] 22
